// data source = ChEMBL document CHEMBL1156160

assay: Inhibition of HCV NS4A tagged recombinant single chain NS3 protease after 15 mins; parameters: species or system Hepacivirus hominis
measureName: Ki (nM)

CC(C)(C)[C@H](NC(=O)NC1(Cc2ccc3ccccc3c2)CCCCC1)C(=O)N1C[C@H]2[C@@H]([C@H]1C(=O)NC(CC1CC1)C(=O)C(N)=O)C2(C)C (some centres not stated); 300
CC(C)(C)[C@H](NC(=O)NC1(Cc2cccs2)CCCCC1)C(=O)N1C[C@H]2[C@@H]([C@H]1C(=O)NC(CC1CC1)C(=O)C(N)=O)C2(C)C (some centres not stated); 9
CCS(=O)(=O)CC1(NC(=O)N[C@H](C(=O)N2C[C@H]3[C@@H]([C@H]2C(=O)NC(CC2CCC2)C(=O)C(N)=O)C3(C)C)C(C)(C)C)CCCCC1 (some centres not stated); 5
CC(C)(C)[C@H](NC(=O)NC1(CS(=O)(=O)C(C)(C)C)CCCCC1)C(=O)N1C[C@H]2[C@@H]([C@H]1C(=O)NC(CC1CC1)C(=O)C(N)=O)C2(C)C (some centres not stated); 12
CCS(=O)(=O)CC1(NC(=O)N[C@H](C(=O)N2C[C@H]3[C@@H]([C@H]2C(=O)NC(CC2CC2)C(=O)C(N)=O)C3(C)C)C(C)(C)C)CCCCC1 (some centres not stated); 11
CC(C)(C)[C@H](NC(=O)NC1(Cc2ccc(O)cc2)CCCCC1)C(=O)N1C[C@H]2[C@@H]([C@H]1C(=O)NC(CC1CC1)C(=O)C(N)=O)C2(C)C (some centres not stated); 30

[1] CC(C)(C)[C@H](NC(=O)NC1(Cc2cccc3ccccc23)CCCCC1)C(=O)N1C[C@H]2[C@@H]([C@H]1C(=O)NC(CC1CC1)C(=O)C(N)=O)C2(C)C (some centres not stated)
[2] CC(C)(C)[C@H](NC(=O)NC1(CN)CCCC1)C(=O)N1C[C@H]2[C@@H]([C@H]1C(=O)NC(CC1CC1)C(=O)C(N)=O)C2(C)C (some centres not stated)
Asked: Determine, for 1 and 2 , which has the greater value of Ki. # respond with the chosen item's label
Given back: 2

[P] CC1(NC(=O)N[C@H](C(=O)N2C[C@H]3[C@@H]([C@H]2C(=O)NC(CC2CCC2)C(=O)C(N)=O)C3(C)C)C(C)(C)C)CCCCC1 (some centres not stated)
[Q] CC(C)(C)[C@H](NC(=O)NC1(c2ccccc2)CCCCC1)C(=O)N1C[C@H]2[C@@H]([C@H]1C(=O)NC(CC1CC1)C(=O)C(N)=O)C2(C)C (some centres not stated)
[R] CC(C)(C)[C@H](NC(=O)NC1(CS(C)(=O)=O)CCCCC1)C(=O)N1C[C@H]2[C@@H]([C@H]1C(=O)NC(CC1CCC1)C(=O)C(N)=O)C2(C)C (some centres not stated)
[S] CCC(c1ccccc1)C1(NC(=O)N[C@H](C(=O)N2C[C@H]3[C@@H]([C@H]2C(=O)NC(CC2CC2)C(=O)C(N)=O)C3(C)C)C(C)(C)C)CCCCC1 (some centres not stated)
Asked: Rank the items in ascending order with respect to Ki. Show the ranking through the labels, in the order asked for.
Given back: R, P, S, Q
